Data origin: PubChem BioAssay (NCI)

Reported TGI values are given for each entry in this list.
- Tested on: SN12C renal
- Protocol description: NCI tumour cell line growth inhibition, 48 h

# input Indicate its recorded TGI; the compound in question is CN1C2CCC1CN(CCOC(c1ccc(F)cc1)c1ccc(F)cc1)C2
# output > 100 µM

# input Let me know recorded TGI for N#C/C(=C\c1ccccc1)c1nc(-c2cc3ccccc3oc2=O)cs1 , thanks.
# output > 100 µM

Continuing:
# input Assign TGI to the following record: [C-]#[N+][C@@H]1C2[C@H](CC[C@@]1(C)O)C(=C)CC[C@@H]2[C@@]1(C)CC[C@H](Cl)C(C)(C)O1 (stereo partly specified)
# output 26.3 µM

# input Fill in reported TGI for this entry: CC1CC(c2ccc([N+](=O)[O-])cc2)=Nc2ccccc2S1 (stereo unspecified)
# output 35.1 µM

# input Return value of TGI for input O=C(Nc1ccc(CN2CCOCC2)cc1)c1ccc(-c2cc(Cl)ccc2Cl)o1 , no commentary.
# output 52.6 µM

###

// values below are reported TGI
- Tested on: UO-31 renal
- Protocol description: NCI tumour cell line growth inhibition, 48 h

These recorded examples may help you get a feel for the data.
# input Using known records, supply TGI for O=c1c2cc([N+](=O)[O-])ccc2[nH]n1Cc1ccccn1
# output > 100 µM

# input Give me measured TGI, please, for this molecule: CC(C)(CN1CCCCC1)C(/C=C/c1ccc(Cl)c(Cl)c1)=N\NC(=O)N/N=C(/C=C/c1ccc(Cl)c(Cl)c1)C(C)(C)CN1CCCCC1
# output 5.56 µM

# input # return recorded TGI for input Cc1cc(O)c(C(=O)O)c2c1C(=O)c1c(O)c(OCC(O)C(O)C(O)C(O)CO)c(O)c(O)c1C2=O (stereo not drawn) (tested in a mixture with another compound)
# output > 100 µM

# input Given COc1cc2ncn(-c3cc(O[C@H](C)c4ccccc4Cl)c(C(N)=O)s3)c2cc1OC , respond with its TGI.
# output 12.1 µM

# input Fill in TGI for record CN1CCN([C@H]2C[C@H]3[C@@H]4CC=C5C[C@@H](N6CCCC6)CC[C@]5(C)[C@H]4CC[C@]3(C)[C@H]2O)CC1
# output > 100 µM

More entries:
# input State, in one line, measured TGI of Cc1cc(S(=O)(=O)n2ccnc2Oc2cccc(Cl)c2)c(SSc2cc(Cl)c(C)cc2S(=O)(=O)n2ccnc2Oc2cccc(Cl)c2)cc1Cl
# output > 100 µM

# input For the molecule CN(C)N=Nc1ccccc1 , give its measured TGI value.
# output > 100 µM

# input Output TGI of COc1ccccc1/C=C1\Sc2scc(-c3ccc(O)c(O)c3)[n+]2C1=O
# output 43.2 µM

###

// reported TGI for each item listed
- Tested on: SK-MEL-2 melanoma
- Protocol description: NCI tumour cell line growth inhibition, 48 h
Give a bare numeral; the unit µM is implied.

Answered examples (3):
# input Give reported TGI for COc1ccc2cc1Oc1ccc(cc1)CC1c3cc4c(cc3CCN1C)Oc1c(OC)cc3c(c1O4)C(C2)N(C)CC3 (stereo not drawn) (SK-MEL-2 melanoma)
# output 6.53

# input Name the recorded TGI of Cc1cc2[nH]c(Cl)c(/C=C3\C(=O)Nc4ccccc43)c2cc1O , assay system SK-MEL-2 melanoma.
# output 12.9

# input # return TGI of O=C1/C(=C\c2ccccc2)C2/C(=C\c3ccccc3)C(=O)/C(=C\c3ccccc3)C2/C1=C\c1ccccc1 (stereo not drawn) (system: SK-MEL-2 melanoma)
# output 3.62

// next entry
# input Give TGI for this entry on SK-MEL-2 melanoma: CN(C)CCCOc1ccc(OCCCN(C)C)c2c1C(=O)c1ccccc1C2=O
# output 3.34
